Recorded TGI, one value per entry.
test system: MOLT-4 leukemia; experiment: NCI tumour cell line growth inhibition, 48 h

Known TGI results, listed for orientation:
| molecule | tested-on | TGI |
| --- | --- | --- |
| O=C(c1cccc2ccccc12)C1S(=O)(=O)OCCOS1(=O)=O | MOLT-4 leukemia | > 100 µM |
| CCO/S(=N/S(=O)(=O)c1ccccc1)c1ccccc1[N+](=O)[O-] (stereo not given) | MOLT-4 leukemia | > 100 µM |
| Cc1cc(N(CCC#N)CCC#N)ccc1N=Nc1cc(Cl)ccc1Cl | MOLT-4 leukemia | 34.9 µM |
| C=CC(COC(=O)C(C)(C)OC(C)=O)c1ccc(OC(=O)C(C)C)c(OC)c1 (stereo not given) | MOLT-4 leukemia | 20.6 µM |

IN: Given the molecule CCc1c2cc(OC)c(OC)cc2cc2c3cc(OC)c(OC)cc3cc[n+]12 (tested in a mixture with another compound) , what is its reported TGI?
OUT: > 100 µM

IN: Given the molecule `O=[P+](O)c1ccccn1` , what is its reported TGI?
OUT: > 100 µM

###

test system: ACHN renal; experiment: NCI tumour cell line growth inhibition, 48 h
readout: TGI

| compound | TGI |
| --- | --- |
| O=C(NCCc1ccccc1)Nc1ccc2cc3ccc(NC(=O)NCCc4ccccc4)cc3nc2c1 | > 100 µM |

Next, consider the following compound.
IN: Given the compound `O=C1CNC(=O)/C(=C/c2c[nH]c3ccccc23)N1` , what is its reported TGI?
OUT: > 100 µM

###

tested on: SK-MEL-5 melanoma; test: NCI tumour cell line growth inhibition, 48 h
readout: TGI

Known TGI results, listed for orientation:
| molecule | tested-on | TGI |
| --- | --- | --- |
| C[C@@H]1[C@H](O)CC2=C(CC[C@@H](O)C2(C)C)[C@@]1(CO)CCc1ccoc1 | SK-MEL-5 melanoma | > 50 µM |
| Cn1c(=O)c2sc3c4sc5c(=O)n(C)c6ccccc6c5c4sc3c2c2ccccc21 | SK-MEL-5 melanoma | > 100 µM |
| CNC(=O)c1cc(Oc2cccc3nc(NC(=O)Nc4cc(C(F)(F)F)cc(C(F)(F)F)c4)ccc23)ccn1 | SK-MEL-5 melanoma | 24.2 µM |
| CCOC(=O)C(C)Sc1nnc(COc2ccc(Cl)cc2)n1-c1ccccc1 (stereo not given) | SK-MEL-5 melanoma | 35.8 µM |

Next, consider the following molecule.
IN: Given the molecule `NC(=O)CN1CC(C2=C(O)CN(CC(N)=O)C2=O)=CC1=O` , what is its reported TGI?
OUT: > 100 µM

###

system: BT-549 breast; experiment: NCI tumour cell line growth inhibition, 48 h
Please note: true applies when TGI is 60 µM or greater, and false applies otherwise.

| molecule | tested-on | assigned-label |
| --- | --- | --- |
| COc1ccc(/C(C)=N/NC(=O)CSc2nc3ccccc3c(=O)n2CCc2ccc(S(N)(=O)=O)cc2)cc1 | BT-549 breast | false |
| COc1cccc(-c2nn(-c3ccccc3)cc2-c2ccnc(NCCCNC(=O)c3cccc(C(F)(F)F)c3)c2)c1 | BT-549 breast | false |
| CC(=O)Nc1ccc2c3c(cc(O)c2c1)N(C(=O)CCCCC(=O)N1CC(CCl)c2c1cc(O)c1cc(NC(C)=O)ccc21)CC3CCl (centres undefined) | BT-549 breast | false |

IN: // inclusive: TGI at least 60 µM? input: `O/N=C(/C(Cl)=C(Cl)Cl)C(Cl)Cl`
OUT: false

IN: // inclusive: TGI at least 60 µM? input: CN1CC(c2ccccc2)C(O)(C2(c3ccccc3)CN(C)CC(c3ccccc3)C2=O)C(c2ccccc2)C1 (centres undefined)
OUT: true

IN: // inclusive: TGI at least 60 µM? input: CC(C)c1ccc(C2NC(=S)NC3=C2c2ccccc2C3=O)cc1 (centres undefined)
OUT: false

IN: // inclusive: TGI at least 60 µM? input: `CCOC(=O)/C(=C\NC(C)(C)C)c1nc2ccccc2[nH]1`
OUT: true

IN: // inclusive: TGI at least 60 µM? input: `CNC(=O)c1cc(Oc2cccc3nc(NC(=O)Nc4cc(C(F)(F)F)cc(C(F)(F)F)c4)ccc23)ccn1`
OUT: false

IN: // inclusive: TGI at least 60 µM? input: `O=c1[nH]nc(-c2ccccc2)n1/N=C/c1ccco1`
OUT: true

Source: PubChem BioAssay (NCI)
